B1: Chromodomain-helicase-DNA-binding protein 4, residues 365 to 417; numbered along this chain, Q14839 (parent)
chain: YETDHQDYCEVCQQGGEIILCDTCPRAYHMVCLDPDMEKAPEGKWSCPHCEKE

variants of: B1; assay: abundance fitness (aPCA) (normalised: wild type 0, dead -1); higher = more abundant; growth selection in yeast, the domain comes from the species named; settings: Homo sapiens
Parameter: abundance fitness

>>> value("K44F")
-0.028
>>> value("P48S")
0.058
>>> value("C12V")
-0.887
>>> value("P25R")
-0.054
>>> value("A27N")
-0.165
>>> value("P48C")
-0.001
>>> value("C50T")
-0.624
>>> value("I18M")
0.022
>>> value("E17W")
-0.412
>>> value("M37Q")
-0.103
>>> value("P48L")
-0.126
>>> value("D34G")
0.037
>>> value("C47N")
-0.5
>>> value("C50Q")
-0.767
>>> value("D34Y")
-0.118
>>> value("T3Y")
0.034
>>> value("D22Y")
-0.42
>>> value("Y1F")
0.069
>>> value("V31T")
-0.431
>>> value("P35M")
-0.054
>>> value("K39A")
-0.06
>>> value("C50A")
-0.271

Cited source: the Human Domainome abundance scans (Beltran et al. 2025)
